System: SN12C renal
MEASUREMENT DESCRIPTION: NCI tumour cell line growth inhibition, 48 h; in the data active = GI50 below about 0.43 µM; inactive = the rest
The reply should name one outcome from active, inactive

Solved entries (count: 5):
INSERT INTO assay_data (compound, class_label) VALUES
  ('CC1c2ccccc2CCN1c1ccc(CO)c(Cl)c1 (centres undefined)', 'inactive'),
  ('Oc1cccc2c1NCCC2', 'active'),
  ('c1cc(N2CCN(c3ccc(C4=NCCCN4)cc3)CC2)ccc1C1=NCCCN1', 'inactive'),
  ('CSc1ccc(C2=NN(C(C)=O)C(c3ccc(-c4ccc(Cl)cc4)o3)C2)cc1 (centres undefined)', 'inactive'),
  ('C[n+]1c2ccccc2nc2c(N)cc(N)cc21', 'inactive');

Asked: Which outcome did this test record for the compound Nc1n[nH]c2ccc([C@@H]3Nc4cc5c(cc4[C@H]4C6CCC(C6)[C@@H]34)C(=O)NC5)cc12 (some centres undefined) ?
Given back: inactive

Asked: Which outcome did this test record for the compound O=C(Nc1ccccc1OC(=O)c1ccccc1)c1ccccc1 ?
Given back: inactive

Asked: Which outcome did this test record for the compound COc1ccc2c(c1)C(=O)c1c-2c(OCCN(C)C)nc2ccccc12 ?
Given back: inactive

Asked: Which outcome did this test record for the compound COc1cc2cc(Oc3ccc(NC(=O)c4ccc(Cl)c(Cl)c4)cc3)c(C)nc2cc1OC ?
Given back: inactive

====

Test system: HCT-15 colon
MEASUREMENT DESCRIPTION: NCI tumour cell line growth inhibition, 48 h
Recorded TGI, one value per entry.

Example cases with answers are listed next.
INSERT INTO assay_data (compound, test_result) VALUES
  ('COc1ccc(-c2cc(=O)c3c(O)cccc3o2)c(OC)c1OC', '> 100 µM'),
  ('C=C1CC[C@@H](C)[C@](C)(CCc2ccoc2)C/C=C\C=C/1C(=O)O', '> 100 µM'),
  ('C=C(C)[C@@H]1CC[C@]2(C(=O)OC)CC[C@]3(C)[C@H](CC[C@@H]4[C@@]5(C)CC[C@H](O)C(C)(C)[C@@H]5CC[C@]43C)[C@@H]12', '50.6 µM'),
  ('CC(=O)OCC1OC(OCCCOP(=S)(OCCC#N)OCC2OC(n3ccc(N)nc3=O)C(OC(=O)c3ccccc3)C2OC(=O)c2ccccc2)C(OC(C)=O)C(OC(C)=O)C1OC(C)=O (stereo unspecified)', '> 100 µM');

Asked: Supply measured TGI of COc1cc(Nc2nc3cc(C(F)(F)F)ccc3n3cccc23)cc(OC)c1OC in your reply.
Given back: > 100 µM

Asked: Supply measured TGI of Cn1c(=O)n2n(c1=O)C(C)(C13CC4CC(CC(C4)C1)C3)C13CC4CC(CC1C4)CC23 (stereo unspecified) in your reply.
Given back: > 100 µM

====

Tested on: KM12 colon
MEASUREMENT DESCRIPTION: NCI tumour cell line growth inhibition, 48 h
QUANTITY: GI50

Example cases with answers are listed next.
INSERT INTO measurements (molecule, quantity, test_result) VALUES
  ('O=C(NNS(=O)(=O)c1ccc(Cl)cc1Cl)c1cccnc1Nc1ccc(Cl)cc1', 'GI50', '13800 nM'),
  ('O=c1c2cc(F)ccc2sc2c(NCCCNCCO)nc3ccccc3c12', 'GI50', '1840 nM'),
  ('Oc1c(-c2cc(C(F)(F)F)[nH]n2)cc(Cl)c(OCc2ccc(Cl)cc2)c1-c1ccc(Cl)c(C(F)(F)F)c1', 'GI50', '862 nM'),
  ('CCN1C(=O)N(CC)C2C1NN=c1s/c(=C\c3ccc(F)cc3)c(=O)n12 (stereo not given)', 'GI50', '91.3 nM');

Could you now look at the following molecule, please?
Asked: Supply measured GI50 of C[C@@H]1Cc2cc(O)ccc2[C@H]2CC[C@]3(C)/C(=C/COCCN(C)C)CC[C@H]3[C@H]12 (tested in a mixture with another compound) in your reply.
Given back: 309 nM
